tested_system: 11β-HSD1 (Homo sapiens)
Construct: human liver microsomes were used as a source of the 11β‐HSD1 enzyme; tissue XenoTech Lot No.1410013; host or cells: pooled human liver microsomes, mixed gender
Sequence (P28845 whole entry): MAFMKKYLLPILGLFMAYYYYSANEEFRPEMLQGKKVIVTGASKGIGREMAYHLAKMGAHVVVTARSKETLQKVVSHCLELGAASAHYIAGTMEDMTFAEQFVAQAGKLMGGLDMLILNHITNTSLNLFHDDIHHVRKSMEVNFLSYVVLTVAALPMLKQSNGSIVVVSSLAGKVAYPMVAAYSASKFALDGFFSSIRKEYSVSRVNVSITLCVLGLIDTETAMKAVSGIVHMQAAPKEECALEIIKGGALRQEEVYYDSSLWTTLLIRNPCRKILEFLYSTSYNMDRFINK
experiment_notes: 11β-HSD1 inhibition assay (cortisone to cortisol, human liver microsomes, cortisol ELISA)
Type: biochemical
assay_setup: at a concentration of 10 µM; human liver microsomes
Protocol: 11β-Hydroxysteroid dehydrogenase type 1 and type 2 inhibition assays were performed as previously described. For more details, see the Supplementary Materials. Detailed protocols of enzyme inhibition assays 1. Inhibition of 11β‐HSD Assays […] water. […] Cortisol levels resulting from the reaction were measured using a commercially available ELISA kit. […] levels were measured using a commercially available ELISA kit. […]
recorded_metric: inhibition at 10 µM (%)

Solved cases below.
molecule: O=C1N=C(NC2CCCCC2)SC12CCC2
unit_label: %
inhibition at 10 µM: 87.3
--
molecule: CC(C)C1SC(NC2CCCCC2)=NC1=O (stereo not drawn)
unit_label: %
inhibition at 10 µM: 90.4
--
molecule: CCCC1SC(NC2CCCCC2)=NC1=O (stereo not drawn)
unit_label: %
inhibition at 10 µM: 85.7

1. CC1SC(NC2CCCCC2)=NC1=O (stereo not drawn)
2. O=C1N=C(NC2CCCCC2)SC12CCCCC2
So which one has the bigger inhibition at 10 µM here, 1 or 2 ? Which one? Tell me its label. 2
(2: 94%, 1: 27.5%)

Taken from paper PMC12470129.
